Experiment: Antimicrobial activity against Morganella morganii (GC 2213)
Type: functional
Quantity: MIC (µg/mL)
API: value field is a number in µg/mL; no unit string.

For orientation, consider the following solved cases.
> print(dat)
                                    compound  unit.text  recorded.result
 1  C[C@@H](O)[C@H]1C(=O)N2C(C(=O)[O-])=C(SC3COC(CN)C3)[C@H](C)[C@H]12.[Na+] (stereo partly drawn)      µg/mL             0.25
 2  C[C@H](N)C(=O)N[C@@H](C)C(=O)NC[C@H]1OCC[C@H]1SC1=C(C(=O)[O-])N2C(=O)[C@H]([C@@H](C)O)[C@H]2[C@H]1C.[Na+]      µg/mL                2
 3  C[C@H](N)C(=O)NC[C@H]1OCC[C@H]1SC1=C(C(=O)[O-])N2C(=O)[C@H]([C@@H](C)O)[C@H]2[C@H]1C.[Na+]      µg/mL                1
 4  CC(=O)NCC1CC(SC2=C(C(=O)[O-])N3C(=O)[C@H]([C@@H](C)O)[C@H]3[C@H]2C)CO1.[Na+] (stereo partly drawn)      µg/mL              0.5
 5  CNC[C@H]1OCC[C@H]1SC1=C(C(=O)[O-])N2C(=O)[C@H]([C@@H](C)O)[C@H]2[C@H]1C.[Na+]      µg/mL              0.5
 6  C[C@H](N)C(=O)NCC1CC(SC2=C(C(=O)[O-])N3C(=O)[C@H]([C@@H](C)O)[C@H]3[C@H]2C)CO1.[Na+] (stereo partly drawn)      µg/mL                1
 7  C[C@@H](O)[C@H]1C(=O)N2C(C(=O)[O-])=C(S[C@@H]3CCO[C@@H]3CN(C)C)[C@H](C)[C@H]12.[Na+]      µg/mL              0.5
 8  C[C@@H](O)[C@H]1C(=O)N2C(C(=O)O)=C(SCCNC=N)C[C@H]12 [IMIPENEM ANHYDROUS]      µg/mL                1
 9  CNCC(=O)NCC1CC(SC2=C(C(=O)[O-])N3C(=O)[C@H]([C@@H](C)O)[C@H]3[C@H]2C)CO1.[Na+] (stereo partly drawn)      µg/mL             0.25
10  CC(=O)NC[C@H]1OCC[C@H]1SC1=C(C(=O)[O-])N2C(=O)[C@H]([C@@H](C)O)[C@H]2[C@H]1C.[Na+]      µg/mL              0.5

Which MIC value belongs to C[C@@H](O)[C@H]1C(=O)N2C(C(=O)[O-])=C(SC3COC(C/N=C/N)C3)[C@H](C)[C@H]12.[Na+] (stereo partly drawn) ? 0.5

Thanks! And CCN1CCN(C(=O)NCC2CC(SC3=C(C(=O)[O-])N4C(=O)[C@H]([C@@H](C)O)[C@H]4[C@H]3C)CO2)C(=O)C1=O.[Na+] (stereo partly drawn) ? 16

Same thing, different compound: C[C@@H](O)[C@H]1C(=O)N2C(C(=O)[O-])=C(SC3COC(C/N=C/N(C)C)C3)[C@H](C)[C@H]12.[Na+] (stereo partly drawn) 2

----------
Measured MIC, listed per entry for reference.
Assay: Antimicrobial activity against Morganella morganii (GC 2213)
Assay type: functional

Below, each entry is followed by its recorded MIC result.
> print(dat)
                                   compound  recorded.result
1  C[C@@H](N)C(=O)NC[C@H]1OCC[C@H]1SC1=C(C(=O)[O-])N2C(=O)[C@H]([C@@H](C)O)[C@H]2[C@H]1C.[Na+]          1 µg/mL
2  C[C@@H](O)[C@H]1C(=O)N2C(C(=O)[O-])=C(S[C@@H]3CCO[C@@H]3C/N=C\N)[C@H](C)[C@H]12.[Na+]          1 µg/mL
3  CCN1CCN(C(=O)NC[C@H]2OCC[C@H]2SC2=C(C(=O)[O-])N3C(=O)[C@H]([C@@H](C)O)[C@H]3[C@H]2C)C(=O)C1=O.[Na+]        0.5 µg/mL
4  C[C@@H](O)[C@H]1C(=O)N2C(C(=O)[O-])=C(S[C@@H]3CCO[C@@H]3CN)[C@H](C)[C@H]12.[Na+]        0.5 µg/mL

// below: MIC requested for another compound
Reported MIC for C[C@@H](O)[C@H]1C(=O)N2C(C(=O)[O-])=C(SC3COC(C[N+](C)(C)C)C3)[C@H](C)[C@H]12 (stereo not given in full) : what is it? 4 µg/mL

----------
Target: UniProt P22412
Test: Relative hydrolysis to that of imipenem was determined by hog renal dehydropeptidase
Listed below: Relative hydrolysis values for each entry.
Just the number, please, no unit after it.

> print(dat)
                                   molecule     test.target             quantity  recorded.result
1  CC(=O)NC[C@H]1OCC[C@H]1SC1=C(C(=O)[O-])N2C(=O)[C@H]([C@@H](C)O)[C@H]2[C@H]1C.[Na+]  UniProt P22412  Relative hydrolysis                4
2  C[C@@H](O)[C@H]1C(=O)N2C(C(=O)O)=C(SCCNC=N)C[C@H]12 [IMIPENEM ANHYDROUS]  UniProt P22412  Relative hydrolysis              100
3  CCN1CCN(C(=O)NCC2CC(SC3=C(C(=O)[O-])N4C(=O)[C@H]([C@@H](C)O)[C@H]4[C@H]3C)CO2)C(=O)C1=O.[Na+] (stereo partly specified)  UniProt P22412  Relative hydrolysis               13
4  CC(=O)NCC1CC(SC2=C(C(=O)[O-])N3C(=O)[C@H]([C@@H](C)O)[C@H]3[C@H]2C)CO1.[Na+] (stereo partly specified)  UniProt P22412  Relative hydrolysis                4
5  C[C@@H](O)[C@H]1C(=O)N2C(C(=O)[O-])=C(S[C@@H]3CCO[C@@H]3C/N=C\N)[C@H](C)[C@H]12.[Na+]  UniProt P22412  Relative hydrolysis               18

Next up:
Entry CCN1CCN(C(=O)NC[C@H]2OCC[C@H]2SC2=C(C(=O)[O-])N3C(=O)[C@H]([C@@H](C)O)[C@H]3[C@H]2C)C(=O)C1=O.[Na+] : reported Relative hydrolysis = ? 9

----------
Biological target: Dipeptidase 1 (Sus scrofa) (UniProt P22412)
Sequence (P22412 whole entry): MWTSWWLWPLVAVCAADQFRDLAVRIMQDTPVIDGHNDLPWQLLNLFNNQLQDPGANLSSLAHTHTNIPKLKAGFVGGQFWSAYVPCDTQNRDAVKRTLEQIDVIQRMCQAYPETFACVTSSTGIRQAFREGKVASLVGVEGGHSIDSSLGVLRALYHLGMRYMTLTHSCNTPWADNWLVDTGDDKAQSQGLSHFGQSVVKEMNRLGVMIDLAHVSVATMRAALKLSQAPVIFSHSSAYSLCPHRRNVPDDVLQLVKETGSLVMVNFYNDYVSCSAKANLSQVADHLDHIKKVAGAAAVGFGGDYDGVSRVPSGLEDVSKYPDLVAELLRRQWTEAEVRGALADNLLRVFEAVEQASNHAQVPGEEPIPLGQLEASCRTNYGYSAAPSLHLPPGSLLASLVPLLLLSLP
Experiment: Relative hydrolysis to that of imipenem was determined by hog renal dehydropeptidase
Hi! Just check whether Relative hydrolysis is below 8. Below gives yes (1), equal or above gives no (0).

> print(dat)
                                   molecule                               test.target   group
1  C[C@H](N)C(=O)NC[C@H]1OCC[C@H]1SC1=C(C(=O)[O-])N2C(=O)[C@H]([C@@H](C)O)[C@H]2[C@H]1C.[Na+]  Dipeptidase 1 (Sus scrofa) (UniProt P22412)  no (0)

Consider C[C@@H](N)C(=O)NC[C@H]1OCC[C@H]1SC1=C(C(=O)[O-])N2C(=O)[C@H]([C@@H](C)O)[C@H]2[C@H]1C.[Na+] . Does its Relative hydrolysis lie strictly below 8? yes (1)

Entry C[C@@H](O)[C@H]1C(=O)N2C(C(=O)[O-])=C(SC3COC(CN)C3)[C@H](C)[C@H]12.[Na+] (some centres not stated) please no (0)

Another: C[C@@H](O)[C@H]1C(=O)N2C(C(=O)[O-])=C(S[C@@H]3CCO[C@@H]3CN)[C@H](C)[C@H]12.[Na+] no (0)

Now try C[C@@H](O)[C@H]1C(=O)N2C(C(=O)[O-])=C(S[C@@H]3CCO[C@@H]3CN(C)C)[C@H](C)[C@H]12.[Na+] . yes (1)

What do you get for C[C@H](N)C(=O)N[C@@H](C)C(=O)NC[C@H]1OCC[C@H]1SC1=C(C(=O)[O-])N2C(=O)[C@H]([C@@H](C)O)[C@H]2[C@H]1C.[Na+] ? no (0)

Entry to check: CNC[C@H]1OCC[C@H]1SC1=C(C(=O)[O-])N2C(=O)[C@H]([C@@H](C)O)[C@H]2[C@H]1C.[Na+] no (0)

----------
Test system: Escherichia coli
Experiment: Antimicrobial activity against Escherichia coli (GC 2205)
Format: functional
# MIC per entry

As a guide, the following entries are already answered.
> print(dat)
                                   molecule  quantity  recorded.result
1  C[C@H](N)C(=O)N[C@@H](C)C(=O)NC[C@H]1OCC[C@H]1SC1=C(C(=O)[O-])N2C(=O)[C@H]([C@@H](C)O)[C@H]2[C@H]1C.[Na+]       MIC       0.12 µg/mL
2  C[C@@H](O)[C@H]1C(=O)N2C(C(=O)[O-])=C(S[C@@H]3CCO[C@@H]3CN)[C@H](C)[C@H]12.[Na+]       MIC     ≤ 0.06 µg/mL
3  C[C@H](N)C(=O)NC[C@H]1OCC[C@H]1SC1=C(C(=O)[O-])N2C(=O)[C@H]([C@@H](C)O)[C@H]2[C@H]1C.[Na+]       MIC     ≤ 0.06 µg/mL
4  CCN1CCN(C(=O)NC[C@H]2OCC[C@H]2SC2=C(C(=O)[O-])N3C(=O)[C@H]([C@@H](C)O)[C@H]3[C@H]2C)C(=O)C1=O.[Na+]       MIC     ≤ 0.06 µg/mL

API: the following record is the query input.
Form field - read-out: MIC; system: Escherichia coli; submitted item: C[C@@H](O)[C@H]1C(=O)N2C(C(=O)[O-])=C(SC3COC(C/N=C/N(C)C)C3)[C@H](C)[C@H]12.[Na+] (stereo partly drawn) 0.12 µg/mL
